target: SARS-CoV-2 S2 domain (SARS-CoV-2, UniProt P0DTC2 686-1213); assay: ELISA (FIG. 2C grouping)

{"columns": ["binder", "binding result"],
 "data": [
  ["8-A17-A (antibody, V domains shown) VH: QVQLKESGPGLVAPSQSLSITCTVSGFSLTSYAISWVRQPPGKGLEWLGVVWPGGGTNYNSALKSRLSINKDNSKSQVFLKMNSLQTDDTGRYYCARTGYHFDYWGQGTTLTVSS VL: QIVLTQSPAIMSASPGEKVTMTCSVSSSVSYMHWYQQKSGTSPKRWIYDTSKLASGVPARFSGSGSGTSYSLTISSMEAEDAATYYCQQWSSNPPMYTFGGGTKLEIK", "no binding"],
  ["6-O12-A (antibody, V domains shown) VH: QVQLQQPGTELVKPGASVKLSCKASGYTFTSYWMHWVKQRPGQGLEWIGNINPSNGGTNYNEKFRSKATLTVDKSSSTAYMQLSSLTSEDSAVYYCARLGWFLPLGSWGQGTTLTVSS VL: QIVLTQSPAIMSASLGEVITLTCSASSSVSYMHWYQQKSGTSPKLLIYSTSNLASGVPSRFSGSGSGTFYSLTISSVEAEDAADYYCHQWSGYMYTFGGGTKLEIK", "no binding"],
  ["9-F6-A (antibody, V domains shown) VH: EVQLQQSGPELVKPGASVKMSCKASGYTFTSYIMHWVKQKPGQGLEWIGYILPYNDGTKYNEKFKGKATLTSDKSSSTAYMELRSLTSEDSAVYYCARWGYSNFLDSWGQGTTLTVSS VL: DIQMTQTTSSLSASLGDRVTISCRASQDINNYLNWYQQKPDGTVKLLIYYTSRLHSGVPSRFSGSGSGTDYSLTIRNLEQEDIATYFCQQGNTLPPTFGGGTKLEIK", "no binding"]
]}
